Exercise: for every item that follows, state its recorded GFP response relative to DMSO.
- assay: yeast TOR pathway reporter LAP4-GFP change – cell-based, cherry picks, flow cytometry, mother/daughter gates, confirmation (AID 2271);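 note: ratio of sample to DMSO plate mean so 100% equals DMSO level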
- experimental_parameters: S. cerevisiae LAP4-GFP strain, 3 h, at 10 µM, hits give high values, 100 means same as DMSO control
Answers are plain numbers, in %.

Below, 5 compounds whose answers are already recorded.
Note to self: GFP response relative to DMSO recorded for CC(=O)OCC(=O)[C@@]1(O)CC[C@H]2[C@@H]3CCC4=CC(=O)CC[C@]4(C)[C@H]3[C@@H](O)C[C@@]21C was 96.7

Note to self: GFP response relative to DMSO recorded for c1cnc2c(c1)ccc1cccnc12 was 116

Note to self: GFP response relative to DMSO recorded for CC(=O)CSc1ncnc2c1cnn2-c1ccccc1 was 106

Note to self: GFP response relative to DMSO recorded for CC(C)(C)c1ccc(C(=O)CC(Sc2ccc(Cl)cc2)C(=O)O)cc1 (centres undefined) was 120

Note to self: GFP response relative to DMSO recorded for C[C@]12CCC(=O)C=C1[C@H](O)C[C@@H]1[C@@H]2[C@@H](O)C[C@@]2(C)[C@H]1CC[C@]2(O)C(=O)CO was 97.7

Please go through the list and note GFP response relative to DMSO for each compound.
1. CCCS(=O)(=O)c1nnnn1-c1cccc(OC)c1
2. CC(=O)[C@H]1CC[C@H]2[C@@H]3CCC4=CC(=O)CC[C@]4(C)[C@H]3[C@H](O)C[C@]12C

[reply]
1. 176
2. 100

Please go through the list and note GFP response relative to DMSO for each compound.
1. Cc1cc(C)c(C(=O)Cn2cnc3cc([N+](=O)[O-])ccc3c2=O)cc1C
2. O=C(/C=C/c1ccccc1)c1ccccc1
3. CC(=O)OCC(=O)[C@H]1CC[C@H]2[C@@H]3CCC4=CC(=O)CC[C@]4(C)[C@H]3CC[C@]12C
4. O=C(NCCN1CCN(c2ccccc2)CC1)c1cccc(Br)c1
5. CCS(=O)(=O)N1N=C(c2cccc(NS(C)(=O)=O)c2)CC1c1ccc(C)cc1 (centres undefined)

[reply]
1: 89.4; 2: 97.7; 3: 103; 4: 97.7; 5: 101

Please go through the list and note GFP response relative to DMSO for each compound.
1. CN(C)CCN(Cc1ccccc1)c1ccccn1
2. NS(=O)(=O)c1cc2c(cc1C(F)(F)F)NC(Cc1ccccc1)NS2(=O)=O (centres undefined)
3. CC(=O)Nc1ccc(S(=O)(=O)c2ccc(N)cc2)cc1
4. CN/C(=C/[N+](=O)[O-])NCCSCc1ccc(CN(C)C)o1

[reply]
1: 101; 2: 97.7; 3: 105; 4: 97.9

Please go through the list and note GFP response relative to DMSO for each compound.
1. O=C1ON=C(c2ccc(Cl)cc2)/C1=C/c1ccc(O)cc1
2. CC(=O)[C@@]1(O)CC[C@H]2[C@@H]3CCC4=CC(=O)CC[C@]4(C)[C@H]3[C@@H](O)C[C@@]21C
3. Cc1ccc2[nH]c3c(c2c1)CCNC3=O
4. Cc1ccc(OCCCCn2ccnc2C)c(C)c1
5. O=c1cnn([C@@H]2O[C@H](CO)[C@@H](O)[C@H]2O)c(=O)[nH]1
6. CCOC(=O)C(Cc1cc(C(C)=O)ccc1OC(C)C)C(=O)OCC
7. CC(C)(C)C(=O)/C=c1\s/c(=C\c2ccc(-c3ccc([N+](=O)[O-])cc3)o2)c(=O)n1CC(=O)NC(N)=O
8. CN(C)CCCN1c2ccccc2Sc2ccc(Cl)cc21

[reply]
1: 90.2; 2: 97.7; 3: 91.4; 4: 99.8; 5: 109; 6: 97.7; 7: 102; 8: 95
